- System: rodent lifetime carcinogenesis bioassay, tumor incidence TD50
- EXPERIMENTAL_DETAILS: carcinogenic potency in animals, long-term in vivo studies, CPDB compilation (AID 1745844)
- RUN_PARAMETERS: mouse; strain B6C3F1; males; by gavage; site: bone marrow + kidney/pelvis + liver + multiple organs + omentum + spleen + thorax; lesion: hemangiosarcoma; dosed 103 weeks; study length 104 weeks
MEASURE: TD50 (mg/kg/day)
Numeric answer only, unit mg/kg/day assumed.

Task: Answer with the recorded TD50 of CCCCCl only.
Output: 2830

---

- Tested on: rodent lifetime carcinogenesis bioassay, tumor incidence TD50
- EXPERIMENTAL_DETAILS: carcinogenic potency in animals, long-term in vivo studies, CPDB compilation (AID 1745844)
- RUN_PARAMETERS: mouse; strain B6C3F1; males; by gavage; site: lung; lesion: alveolar/bronchiolar adenoma; dosed 90 weeks; study length 104 weeks
MEASURE: TD50 (mg/kg/day)
Numeric answer only, unit mg/kg/day assumed.

Task: Answer with the recorded TD50 of ClCC(Cl)CCl only.
Output: 11.2

---

- Test system: rodent lifetime carcinogenesis bioassay, tumor incidence TD50
- EXPERIMENTAL_DETAILS: carcinogenic potency in animals, long-term in vivo studies, CPDB compilation (AID 1745844)
- RUN_PARAMETERS: rat; strain Fischer 344; males; by gavage; site: subcutaneous tissue; lesion: fibroma; dosed 104 weeks; study length 104 weeks
MEASURE: TD50 (mg/kg/day)
Numeric answer only, unit mg/kg/day assumed.

Task: Answer with the recorded TD50 of O=P(OCCCl)(OCCCl)OCCCl only.
Output: 246

---

- Tested on: rodent lifetime carcinogenesis bioassay, tumor incidence TD50
- EXPERIMENTAL_DETAILS: carcinogenic potency in animals, long-term in vivo studies, CPDB compilation (AID 1745844)
- RUN_PARAMETERS: mouse; strain B6C3F1; females; i.p.; site: lung; lesion: alveolar/bronchiolar adenoma; dosed 52 weeks; study length 80 weeks
MEASURE: TD50

Task: Answer with the recorded TD50 of CNNCc1ccc(C(=O)NC(C)C)cc1 only.
Output: 3.39 mg/kg/day

---

- Test system: rodent lifetime carcinogenesis bioassay, tumor incidence TD50
- EXPERIMENTAL_DETAILS: carcinogenic potency in animals, long-term in vivo studies, CPDB compilation (AID 1745844)
- RUN_PARAMETERS: rat; strain Sprague-Dawley; females; inhaled; site: kidney; lesion: nephroblastoma; dosed 52 weeks; study length 111 weeks
MEASURE: TD50 (mg/kg/day)
Numeric answer only, unit mg/kg/day assumed.

Task: Fill in TD50 for C=CCl tested with rodent lifetime carcinogenesis bioassay, tumor incidence TD50.
Output: 17.5

---

- Test system: rodent lifetime carcinogenesis bioassay, tumor incidence TD50
- EXPERIMENTAL_DETAILS: carcinogenic potency in animals, long-term in vivo studies, CPDB compilation (AID 1745844)
- RUN_PARAMETERS: mouse; strain Charles River CD1; females; in feed; site: lung; lesion: adenoma; dosed 78 weeks; study length 78 weeks
The source made the active and inactive calls. How the calls were made is not given here.
MEASURE: TD50

O=C(NCC1CCCCN1)c1cc(OCC(F)(F)F)ccc1OCC(F)(F)F (configuration not stated) :: 938 mg/kg/day (inactive)

Now for another entry.
Task: Answer with the recorded TD50 of Cc1ccccc1OCC(O)CNCCn1cc(C)c(=O)[nH]c1=O (configuration not stated) only.
Output: 449 mg/kg/day
